Measured values drawn from patent US12398147B2 for this set.

- target: SARS-CoV-2 3CL-protease (Severe acute respiratory syndrome coronavirus 2 (2019-nCoV) (SARS-CoV-2), UniProt P0DTD1)
- assayProcedure: biochemical
pIC50: −log10 of the molar value.
resultType: pIC50

CC(C)C[C@H]1C(=O)N2C[C@]3(C[C@H]2C#N)C(=O)Nc2ccc(cc23)CCCCCN1C(=O)c1nnc(-c2ccccc2)[nH]1; 6.00 to 7.00

* * *

- target: SARS-CoV-2 3CL-protease (Severe acute respiratory syndrome coronavirus 2 (2019-nCoV) (SARS-CoV-2), UniProt P0DTD1)
- assayProcedure: biochemical
- recordedConditions: recombinant SARS-CoV-2 3CL-protease 10 nM, 30 min preincubation; read-out: FRET IC50
pIC50: −log10 of the molar value.
Some compounds, each annotated with its measured pIC50.
resultType: pIC50

CCCC[C@H]1C(=O)N2C[C@]3(C[C@H]2C#N)C(=O)Nc2ccc(cc23)CCCCCN1C(=O)c1cc2c(F)cc(F)cc2[nH]1 [Example 15]; > 7.00
CC(C)C[C@H]1C(=O)N2C[C@]3(C[C@H]2C#N)C(=O)Nc2ccc(cc23)CCCCCN1C(=O)c1cnn(-c2ccc(C(F)(F)F)cc2)c1 [Example 18]; > 7.00
CC(C)C[C@H]1C(=O)N2C[C@]3(C[C@H]2C#N)C(=O)Nc2ccc(cc23)C(=O)CCCCN1C(=O)c1cc2c(F)cc(F)cc2[nH]1 [Example 27]; > 7.00
